- tested on: hCav2.2 (Homo sapiens, UniProt Q00975)
- Sequence (Q00975 whole entry): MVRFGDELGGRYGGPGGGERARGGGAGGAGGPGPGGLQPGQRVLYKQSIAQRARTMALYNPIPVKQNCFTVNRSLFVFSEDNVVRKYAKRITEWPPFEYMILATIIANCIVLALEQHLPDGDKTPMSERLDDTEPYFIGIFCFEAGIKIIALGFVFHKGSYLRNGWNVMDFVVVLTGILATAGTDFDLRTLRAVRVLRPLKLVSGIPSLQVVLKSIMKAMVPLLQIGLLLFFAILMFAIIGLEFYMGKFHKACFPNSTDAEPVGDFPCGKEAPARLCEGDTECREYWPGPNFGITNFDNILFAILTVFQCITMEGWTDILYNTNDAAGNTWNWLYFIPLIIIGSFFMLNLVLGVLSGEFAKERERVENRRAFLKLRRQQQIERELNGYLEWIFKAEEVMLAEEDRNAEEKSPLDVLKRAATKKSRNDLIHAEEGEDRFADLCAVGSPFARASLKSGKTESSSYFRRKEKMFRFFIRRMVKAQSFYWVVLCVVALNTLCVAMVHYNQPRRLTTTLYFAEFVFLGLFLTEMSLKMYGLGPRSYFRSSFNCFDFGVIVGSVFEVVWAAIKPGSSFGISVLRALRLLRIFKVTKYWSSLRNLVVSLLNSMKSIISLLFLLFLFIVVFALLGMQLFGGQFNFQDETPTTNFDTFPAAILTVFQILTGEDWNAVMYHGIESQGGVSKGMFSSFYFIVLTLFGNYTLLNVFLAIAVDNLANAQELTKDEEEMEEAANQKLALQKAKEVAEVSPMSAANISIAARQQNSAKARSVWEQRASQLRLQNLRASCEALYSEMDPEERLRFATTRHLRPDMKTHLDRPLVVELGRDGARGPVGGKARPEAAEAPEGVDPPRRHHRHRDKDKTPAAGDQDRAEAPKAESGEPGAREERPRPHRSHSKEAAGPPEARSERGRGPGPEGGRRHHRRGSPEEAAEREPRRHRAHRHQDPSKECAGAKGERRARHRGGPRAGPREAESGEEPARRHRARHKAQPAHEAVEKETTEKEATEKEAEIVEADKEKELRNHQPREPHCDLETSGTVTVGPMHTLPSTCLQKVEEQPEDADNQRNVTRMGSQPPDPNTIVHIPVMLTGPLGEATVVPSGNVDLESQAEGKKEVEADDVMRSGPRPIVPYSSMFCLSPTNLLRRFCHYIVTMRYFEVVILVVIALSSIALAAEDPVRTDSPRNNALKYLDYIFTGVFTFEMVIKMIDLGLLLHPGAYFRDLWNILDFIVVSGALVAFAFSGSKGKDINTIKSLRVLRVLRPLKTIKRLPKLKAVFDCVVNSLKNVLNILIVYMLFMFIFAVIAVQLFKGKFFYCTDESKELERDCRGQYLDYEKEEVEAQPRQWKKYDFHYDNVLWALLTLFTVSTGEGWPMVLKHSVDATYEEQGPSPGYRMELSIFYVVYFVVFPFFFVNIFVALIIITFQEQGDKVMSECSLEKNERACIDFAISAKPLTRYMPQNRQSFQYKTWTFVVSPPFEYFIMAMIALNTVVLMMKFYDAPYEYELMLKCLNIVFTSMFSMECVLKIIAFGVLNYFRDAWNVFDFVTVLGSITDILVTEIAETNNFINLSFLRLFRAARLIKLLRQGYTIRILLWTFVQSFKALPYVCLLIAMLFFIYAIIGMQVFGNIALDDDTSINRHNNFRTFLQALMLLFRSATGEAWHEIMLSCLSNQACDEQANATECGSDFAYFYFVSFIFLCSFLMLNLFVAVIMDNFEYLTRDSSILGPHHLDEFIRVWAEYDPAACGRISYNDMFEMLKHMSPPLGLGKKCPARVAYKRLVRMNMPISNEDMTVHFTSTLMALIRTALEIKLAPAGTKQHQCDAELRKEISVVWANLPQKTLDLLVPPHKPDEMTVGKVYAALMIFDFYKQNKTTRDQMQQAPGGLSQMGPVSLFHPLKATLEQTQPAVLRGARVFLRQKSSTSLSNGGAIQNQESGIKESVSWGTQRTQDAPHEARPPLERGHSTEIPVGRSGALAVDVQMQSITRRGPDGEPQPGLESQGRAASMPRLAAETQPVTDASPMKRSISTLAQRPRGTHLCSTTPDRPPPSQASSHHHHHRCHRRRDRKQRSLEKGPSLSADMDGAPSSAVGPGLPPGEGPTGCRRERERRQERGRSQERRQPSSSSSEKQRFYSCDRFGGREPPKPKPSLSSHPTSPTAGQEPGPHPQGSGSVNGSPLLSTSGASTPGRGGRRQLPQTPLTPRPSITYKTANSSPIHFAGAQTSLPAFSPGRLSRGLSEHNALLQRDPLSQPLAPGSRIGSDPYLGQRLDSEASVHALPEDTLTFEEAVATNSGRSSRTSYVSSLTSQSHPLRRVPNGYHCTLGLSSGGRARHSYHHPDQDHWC
- Sequence (P54284 whole entry partner): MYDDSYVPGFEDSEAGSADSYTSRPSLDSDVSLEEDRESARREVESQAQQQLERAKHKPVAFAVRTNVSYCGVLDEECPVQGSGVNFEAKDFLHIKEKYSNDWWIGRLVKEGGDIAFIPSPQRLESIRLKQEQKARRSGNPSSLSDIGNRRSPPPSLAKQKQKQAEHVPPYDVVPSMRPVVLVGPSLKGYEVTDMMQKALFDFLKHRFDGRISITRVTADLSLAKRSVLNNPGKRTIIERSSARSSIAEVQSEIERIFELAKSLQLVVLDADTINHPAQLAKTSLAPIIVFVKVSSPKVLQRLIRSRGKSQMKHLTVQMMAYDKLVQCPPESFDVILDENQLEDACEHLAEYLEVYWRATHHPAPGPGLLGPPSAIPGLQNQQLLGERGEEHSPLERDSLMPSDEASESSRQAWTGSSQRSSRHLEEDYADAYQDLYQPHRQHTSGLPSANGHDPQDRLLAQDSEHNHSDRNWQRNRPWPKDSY
- Sequence (P54289 25-956 partner limits assumed): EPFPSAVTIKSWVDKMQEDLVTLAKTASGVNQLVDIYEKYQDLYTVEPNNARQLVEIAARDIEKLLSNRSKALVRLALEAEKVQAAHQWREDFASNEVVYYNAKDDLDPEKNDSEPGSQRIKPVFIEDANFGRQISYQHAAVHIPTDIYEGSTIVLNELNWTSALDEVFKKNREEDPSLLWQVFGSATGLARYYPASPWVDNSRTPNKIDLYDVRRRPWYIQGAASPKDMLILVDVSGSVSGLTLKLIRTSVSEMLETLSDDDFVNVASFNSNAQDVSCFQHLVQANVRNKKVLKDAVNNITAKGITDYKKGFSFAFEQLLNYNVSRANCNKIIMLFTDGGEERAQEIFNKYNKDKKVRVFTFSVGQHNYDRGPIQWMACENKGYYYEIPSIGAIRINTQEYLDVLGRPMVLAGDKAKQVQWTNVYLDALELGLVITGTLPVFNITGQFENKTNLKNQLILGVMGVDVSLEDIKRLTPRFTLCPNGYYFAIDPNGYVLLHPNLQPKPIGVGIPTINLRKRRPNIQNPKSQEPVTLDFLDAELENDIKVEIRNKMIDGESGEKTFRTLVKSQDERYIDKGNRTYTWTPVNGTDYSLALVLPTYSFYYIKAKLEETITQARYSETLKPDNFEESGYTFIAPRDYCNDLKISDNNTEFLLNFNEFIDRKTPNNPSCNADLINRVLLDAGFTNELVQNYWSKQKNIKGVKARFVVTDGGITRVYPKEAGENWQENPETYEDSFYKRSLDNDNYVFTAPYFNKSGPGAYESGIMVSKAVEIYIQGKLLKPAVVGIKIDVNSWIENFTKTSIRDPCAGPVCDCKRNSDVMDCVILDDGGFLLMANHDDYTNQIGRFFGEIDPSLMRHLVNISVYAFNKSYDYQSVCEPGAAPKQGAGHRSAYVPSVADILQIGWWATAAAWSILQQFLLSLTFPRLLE
- Sequence (P54289 957-1103 partner limits assumed): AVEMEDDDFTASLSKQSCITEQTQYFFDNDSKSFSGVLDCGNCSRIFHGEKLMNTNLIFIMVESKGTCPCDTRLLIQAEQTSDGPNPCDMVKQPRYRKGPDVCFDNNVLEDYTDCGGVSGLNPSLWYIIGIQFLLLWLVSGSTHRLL
- method notes: Recombinant hCav2.2 channel expressed in mammalian cells
- test settings: recombinant human channel
pIC50: −log10 of the molar value.
// values below are reported pIC50

{"molecule": "CC(C)(C)NC(=O)CN1CCC2(CC1)CC2NC(=O)c1cc(F)cc(Cl)c1 (stereo not drawn)", "pIC50": "< 5.00"}
{"molecule": "CC(C)(C)NC(=O)CN1CCC(CNC(=O)c2cc(F)cc(Cl)c2)CC1 [AFA-258, reference compound]", "pIC50": "< 4.52"}
{"molecule": "CC(C)(C)NC(=O)CN1CCC2(CC1)CC2NC(=O)c1cc(F)cc(C(F)(F)F)c1 (stereo not drawn)", "pIC50": "< 4.52"}

Taken from patent US11744825B2.
